study-target: GDP-bound KRAS wild-type protein (Homo sapiens)
Sequence (P01116 1-188 isoform P01116-2): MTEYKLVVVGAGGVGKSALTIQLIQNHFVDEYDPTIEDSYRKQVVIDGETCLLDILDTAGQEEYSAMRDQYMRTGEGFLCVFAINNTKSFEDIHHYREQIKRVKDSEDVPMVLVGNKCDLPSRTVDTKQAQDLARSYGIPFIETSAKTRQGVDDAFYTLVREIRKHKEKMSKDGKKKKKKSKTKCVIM
procedure-details: Binding to KRAS by surface plasmon resonance (SPR), dissociation constant KD
assay-context: Single Cycle Kinetics
measure: pKd
Numbers only, as −log10 of the molar value.

Observe how each entry below is paired with its result.
CCC[C@H]1C(=O)N[C@@H]([C@@H](C)CC)C(=O)N(C2CC2)CC(=O)N(C)[C@H]2C/C(F)=C\CCN(C2=O)[C@@H](Cc2ccc(C(F)(F)F)cc2)C(=O)N(C)CC(=O)N[C@@H](CCc2cc(F)c(C(F)(F)F)c(F)c2)C(=O)N2C[C@H](OCC)C[C@H]2C(=O)NC2(CCC2)C(=O)N(C)[C@@H](C2CCCC2)C(=O)N(C)[C@H](C(=O)N(C)C)CC(=O)N1C; 9.19
CCCO[C@@H]1C[C@H]2C(=O)NC3(CC(C)(C)C3)C(=O)N(C)[C@@H](C3CCCC3)C(=O)N(C)[C@H](C(=O)N(C)CC)CC(=O)N(C)[C@@H](COCC)C(=O)N[C@@H]([C@@H](C)CC)C(=O)N3C[C@@H](F)C[C@H]3C(=O)N(C)[C@H]3C/C=C\CCN(C3=O)[C@@H](Cc3ccc(C)cc3)C(=O)N(C)CC(=O)N[C@@H](CCc3ccc(C(F)(F)F)c(OC)c3)C(=O)N2C1; 9.25

Hi there! I need pKd for each item below, if you can.
1. CC[C@H](C)[C@@H]1NC(=O)[C@H](CC(C)C)N(C)C(=O)C[C@@H](C(=O)N2CCOCC2)N(C)C(=O)[C@H](C2CCCC2)N(C)C(=O)C2(CCC2)NC(=O)[C@@H]2C[C@@H](OCC3CC3)CN2C(=O)[C@H](CCc2cc(F)c(C(F)(F)F)c(F)c2)NC(=O)CN(C)C(=O)[C@H](Cc2ccc(C(F)(F)F)cc2)N2CCCC[C@@H](C2=O)N(C)C(=O)CN(C)C1=O [PP1000]
2. C=C(C)C[C@H]1C(=O)N(C)[C@H](C(=O)N(C)C)CC(=O)N(C)[C@@H](CCC)C(=O)N[C@@H]([C@@H](C)CC)C(=O)N(C)CC(=O)N(C)[C@H]2C/C=C\CCN(C2=O)[C@@H](Cc2ccc(C(F)(F)F)cc2)C(=O)N(C)CC(=O)N[C@@H](CCc2cc(F)c(C(F)(F)F)c(F)c2)C(=O)N2C[C@H](OCC)C[C@H]2C(=O)N(C)C2(CCC2)C(=O)N1C
3. CCO[C@@H]1C[C@H]2C(=O)OC3(CCC3)C(=O)N(C)[C@@H](C3CCCC3)C(=O)N(C)[C@H](C(=O)N(C)C)CC(=O)N(C)[C@@H]([C@@H](C)OC)C(=O)N[C@@H]([C@@H](C)CC)C(=O)N(C)CC(=O)N(C)[C@H]3C/C=C\CCN(C3=O)[C@@H](Cc3ccc(C)cc3)C(=O)N(C)CC(=O)N[C@@H](CCc3ccc(C(F)(F)F)c(OC)c3)C(=O)N2C1
4. CCC[C@H]1C(=O)N[C@@H]([C@@H](C)CC)C(=O)N(C)CC(=O)N(C)[C@H]2C/C=C\CCN(C2=O)[C@@H](Cc2ccc(C)cc2)C(=O)N(C)CC(=O)N[C@@H](CCc2cc(F)c(C(F)(F)F)c(F)c2)C(=O)N2CC3(CC3)C[C@H]2C(=O)N(C)C2(CCC2)C(=O)N(C)[C@@H](CC(C)(C)C)C(=O)N(C)[C@H](C(=O)N(C)C)CC(=O)N1C

Response given:
10.41
8.89
10.00
10.72

----------
Provide the recorded IC50 for the entries that follow.
Tested on: human lung cancer strain NCI-H441
Format: cell-based
Where a SMILES comes first, the peptide text is derived from it. Bridges are numbered along the chain shown (N, C = ends). [ ]: non-standard residue; d: D form. The star is where a group is joined. hPhe(3-Cl-4-CF3) = N[C@@H](CCc1ccc(C(F)(F)F)c(Cl)c1)C(=O)O; NMePhe(4-Me) = CN[C@@H](Cc1ccc(C)cc1)C(=O)O; NMeGly(cPent) = CN[C@H](C(=O)O)C1CCCC1; NMeD = CN[C@@H](CC(=O)O)C(=O)O; NMeL = CN[C@@H](CC(C)C)C(=O)O; Morpholide = C1CN(*)CCO1; Ac5c = NC1(C(=O)O)CCCC1; NPrGly = CCCNCC(=O)O; Sar = CNCC(=O)O
One number for each entry, in nM.

Example entries and their recorded answers appear below.
CCCN1CC(=O)N(C)[C@@H](Cc2ccc(C)cc2)C(=O)N(C)CC(=O)N[C@@H](CCc2ccc(C(F)(F)F)c(Cl)c2)C(=O)N2CCC[C@H]2C(=O)NC2(CCCC2)C(=O)N(C)[C@@H](C2CCCC2)C(=O)N(C)[C@H](C(=O)N2CCOCC2)CC(=O)N(C)[C@@H](CC(C)C)C(=O)N[C@@H]([C@@H](C)CC)C(=O)N(C)CC1=O [PP0020] ([NMeL]I[Sar][NPrGly][NMePhe(4-Me)][Sar][hPhe(3-Cl-4-CF3)]P[Ac5c][NMeGly(cPent)][NMeD]-Morpholide; lactam N-11); 9.9
CCO[C@@H]1C[C@H]2C(=O)NC3(CC(C)(C)C3)C(=O)N(C)[C@@H](C(CC)CC)C(=O)N(C)[C@H](C(=O)N3CCCC3)CC(=O)N(C)[C@@H](COC)C(=O)N[C@@H]([C@@H](C)CC)C(=O)N(C)CC(=O)N(C)[C@H]3C/C=C\CCN(C3=O)[C@@H](Cc3ccc(C)cc3)C(=O)N(C)CC(=O)N[C@@H](CCc3ccc(C(F)(F)F)c(OC)c3)C(=O)N2C1; 39.1
CCO[C@@H]1C[C@H]2C(=O)NC3(CC(C)(C)C3)C(=O)N(C)[C@@H](C3CCCC3)C(=O)N(C)[C@H](C(=O)N(C)CC)CC(=O)N(C)[C@@H]([C@H](C)OC)C(=O)N[C@@H]([C@@H](C)CC)C(=O)N3CCC[C@H]3C(=O)N(C)[C@H]3C/C=C\CCN(C3=O)[C@@H](Cc3ccc(C)cc3)C(=O)N(C)CC(=O)N[C@@H](CCc3ccc(C(F)(F)F)c(OC)c3)C(=O)N2C1; 150

Would you be so kind as to report IC50 for each listed record?
1. CC[C@H](C)[C@@H]1NC(=O)[C@H](CC(C)C)N(C)C(=O)C[C@@H](C(=O)N2CCOCC2)N(C)C(=O)[C@H](C2CCCC2)N(C)C(=O)C2(CCCC2)NC(=O)[C@@H]2CCCN2C(=O)[C@H](CCc2ccc(C(F)(F)F)c(Cl)c2)NC(=O)CN(C)C(=O)[C@H](Cc2ccc(C)cc2)N2CCCC[C@@H](C2=O)N(C)C(=O)CN(C)C1=O
2. CCO[C@@H]1C[C@H]2C(=O)NC3(CCCC3)C(=O)N(C)[C@@H](C3CCCC3)C(=O)N(C)[C@H](C(=O)N(C)C)CC(=O)N(C)[C@@H](CC(C)C)C(=O)N[C@@H]([C@@H](C)CC)C(=O)N(C)CC(=O)N(C)[C@H]3C/C=C\CCN(C3=O)[C@@H](Cc3ccc(C)cc3)C(=O)N(C)CC(=O)N[C@@H](CCc3cc(F)c(C(F)(F)F)c(F)c3)C(=O)N2C1

Response given:
1: 2.8; 2: 5.8

----------
study-target: GDP-bound KRAS wild-type protein (Homo sapiens)
procedure-details: Binding to KRAS by surface plasmon resonance (SPR), dissociation constant KD
assay-context: 1:1 binding model
Where a SMILES comes first, the peptide text is derived from it. Bridges are numbered along the chain shown (N, C = ends). [ ]: non-standard residue; d: D form. The star is where a group is joined. hPhe(3-Cl-4-CF3) = N[C@@H](CCc1ccc(C(F)(F)F)c(Cl)c1)C(=O)O; NEtPhe(4-CF3) = CCN[C@@H](Cc1ccc(C(F)(F)F)cc1)C(=O)O; NMeGly(cPent) = CN[C@H](C(=O)O)C1CCCC1; NMeD = CN[C@@H](CC(=O)O)C(=O)O; NMeL = CN[C@@H](CC(C)C)C(=O)O; Morpholide = C1CN(*)CCO1; Ac3c = NC1(C(=O)O)CC1; Sar = CNCC(=O)O
What Kd was measured for each of the following?
Answers are plain numbers, in pM.

CCO[C@@H]1C[C@H]2C(=O)NC3(CC(C)(C)C3)C(=O)N(C)[C@@H](C3CCCC3)C(=O)N(C)[C@H](C(=O)N(C)CC)CC(=O)N(C)[C@@H]([C@@H](C)OC)C(=O)N[C@@H]([C@@H](C)CC)C(=O)N(C)CC(=O)N(C)[C@H]3C/C=C\CCN(C3=O)[C@@H](Cc3ccc(C(F)(F)F)cc3)C(=O)N(C)CC(=O)N[C@@H](CCc3cc(F)c(C(F)(F)F)c(F)c3)C(=O)N2C1 [PP3160]; 70

Challenge: For CC[C@H](C)[C@@H]1NC(=O)[C@H](CC(C)C)N(C)C(=O)C[C@@H](C(=O)N2CCOCC2)N(C)C(=O)[C@H](C2CCCC2)N(C)C(=O)C2(CC2)NC(=O)[C@@H]2CCCN2C(=O)[C@H](CCc2ccc(C(F)(F)F)c(Cl)c2)NC(=O)CN(C)C(=O)[C@H](Cc2ccc(C(F)(F)F)cc2)N(CC)C(=O)CN(C)C(=O)CN(C)C1=O [PP0234] ([NMeL]I[Sar][Sar][NEtPhe(4-CF3)][Sar][hPhe(3-Cl-4-CF3)]P[Ac3c][NMeGly(cPent)][NMeD]-Morpholide; lactam N-11) , what is its reported Kd?
Response given: 490
